Where these numbers come from: patent USRE47493E1

molecular target: Human neutrophil elastase (Homo sapiens (Human), UniProt P08246); assay: Human Neutrophil Elastase Assay; type: biochemical; conditions: read-out: IC50, inhibition of neutrophil elastase
Sequence (P08246 30-267): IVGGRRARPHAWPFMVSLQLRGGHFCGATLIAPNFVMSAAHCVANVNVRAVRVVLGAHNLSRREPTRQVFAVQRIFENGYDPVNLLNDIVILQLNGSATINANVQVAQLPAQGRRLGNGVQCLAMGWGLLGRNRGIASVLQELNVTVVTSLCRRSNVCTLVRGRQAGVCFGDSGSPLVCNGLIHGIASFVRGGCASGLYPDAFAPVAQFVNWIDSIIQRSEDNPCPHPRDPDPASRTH
pIC50: recorded values
Reminder that pIC50 means the negative base-10 logarithm of the concentration expressed in mol/L.

Query: Field request: pIC50 | item: CS(=O)(=O)c1cc(C#N)ccc1[C@@H]1NC(=O)N(c2cccc(C(F)(F)F)c2)C2=C1C(=O)CCC2 [Example 18B]
Response: 5.60

Query: Field request: pIC50 | item: CS(=O)(=O)c1cc(C#N)ccc1[C@H]1NC(=O)N(c2cccc(C(F)(F)F)c2)C2=C1C(=O)CCC2 (single isomer, unassigned) [Example 18A]
Response: 8.32

---

Listed here: items and their measured t1/2 INVITRO.
assay: Assay for the Determination of Metabolic Stability with Human Liver Microsomes; format: in vitro ADME; settings: pooled human liver microsomes, 37° C., NADPH

Sample answers from the record:
CS(=O)(=O)c1cc(C#N)ccc1[C@@H]1C2=C(CCCC2=O)N(c2cccc(C(F)(F)F)c2)C(=O)N1C(=O)NC1CCOCC1; >2.17 h
CC(C)NC(=O)N1C(=O)N(c2cccc(C(F)(F)F)c2)C2=C(C(=O)CCC2)[C@H]1c1ccc(C#N)cc1S(C)(=O)=O; >2.17 h

Now for a further molecule.
Query: What value of t1/2 INVITRO has been recorded for this entry: N#Cc1ccc(C2C3=C(CCCC3=O)N(c3cccc(C(F)(F)F)c3)C(=O)N2C(=O)NCCO)cc1 (stereo not drawn)
Response: >2.17 h

---

target: Human neutrophil elastase (Homo sapiens (Human), UniProt P08246); assay: Human Neutrophil Elastase Assay; assay type: biochemical; settings: human neutrophil elastase, substrate MeOSuc-Ala-Ala-Pro-Val-AMC, pH 7.5; read-out: IC50
Entries and their IC50
Your answer is read as nM, so omit the unit and give the number.

CC(C)(O)CNC(=O)N1C(=O)N(c2cccc(C(F)(F)F)c2)C2=C(C(=O)CCC2)C1c1ccc(C#N)cc1 (stereo not drawn) [Example 70.9]; 1.7

Query: Give its IC50 value. Item: CN1C[C@@H](NC(=O)CN2C(=O)N(c3cccc(C(F)(F)F)c3)C3=C(C(=O)CCC3)C2c2ccc(C#N)cc2)CCC1=O (stereo partly drawn) [Example 36.61]
Response: 12.7

---

Each entry below lists one item and its recorded IC50 value.
target: Human neutrophil elastase (Homo sapiens (Human), UniProt P08246); test: Human Neutrophil Elastase Assay; assay type: biochemical; conditions: human neutrophil elastase, substrate MeOSuc-Ala-Ala-Pro-Val-AMC, pH 7.5; read-out: IC50
Value expressed in nM; do not type the unit.

N#Cc1ccc(C2C3=C(CCCC3=O)N(c3cccc(C(F)(F)F)c3)C(=O)N2C(=O)N[C@H]2CCCC[C@@H]2O)cc1 (stereo partly drawn); 1.1

Now turn to the next compound.
Query: Item under review: CS(=O)(=O)c1cc(C#N)ccc1C1C2=C(CCCC2=O)N(c2cccc(C(F)(F)F)c2)C(=O)N1CC(F)F (stereo not drawn) . Reported IC50?
Response: 3.1

---

assay: Assay for Determination of Drug Transport Across Human CACO-2 Cells; assay type: in vitro ADME; settings: human, pH 7.2; Caco-2, PEBA/PEAB
assay endpoint: efflux ratio at 2 h, 10 nM
Respond with the number and no other words.

Query: efflux ratio at 2 h, 10 nM for CS(=O)(=O)c1cc(C#N)ccc1[C@H]1NC(=O)N(c2cccc(C(F)F)c2)C2=C1C(=O)CCC2 (single isomer, unassigned) [Example 19A] ?
Response: 6.7

Query: Quick check: efflux ratio at 2 h, 10 nM of CCS(=O)(=O)c1cc(C#N)ccc1[C@H]1NC(=O)N(c2cccc(C(F)(F)F)c2)C2=C1C(=O)CCC2 (single isomer, unassigned) [Example 54A] ?
Response: 2.4

Query: Which efflux ratio at 2 h, 10 nM is reported for this compound? CN1C(=O)N(c2cccc(C(F)(F)F)c2)C2=C(C(=O)CCC2)[C@H]1c1ccc(C#N)cc1S(C)(=O)=O
Response: 1.6

Query: Return reported efflux ratio at 2 h, 10 nM; argument: CC(C)(O)CNC(=O)N1C(=O)N(c2cccc(C(F)(F)F)c2)C2=C(C(=O)CCC2)C1c1ccc(C#N)cc1 (stereo not shown)
Response: 3.2

---

assay: Assay for Determination of Drug Transport Across Human CACO-2 Cells; assay type: in vitro ADME; conditions: human, pH 7.2; Caco-2, PEBA/PEAB
Reported efflux ratio at 2 h, 10 nM values follow for various compounds
Enter the number alone.

CS(=O)(=O)c1cc(C#N)ccc1[C@H]1NC(=O)N(c2cccc(C(F)(F)F)c2)C2=C1C(=O)CCC2 (single isomer, unassigned) [Example 18A]; 4.2

Query: Entry under review: CN1C(=O)N(c2ccnc(C(F)(F)F)c2)C2=C(C(=O)CCC2)C1c1ccc(C#N)cc1S(C)(=O)=O (stereo not drawn) . Reported efflux ratio at 2 h, 10 nM?
Response: 4.4

Query: Given the compound CNC(=O)N1C(=O)N(c2cccc(C(F)(F)F)c2)C2=C(C(=O)CCC2)[C@H]1c1ccc(C#N)cc1S(C)(=O)=O (single isomer, unassigned) [Example 47A] , what is its reported efflux ratio at 2 h, 10 nM?
Response: 5.4

---

target: Human neutrophil elastase (Homo sapiens (Human), UniProt P08246); assay: Human Neutrophil Elastase Assay; type: biochemical; conditions: human neutrophil elastase, substrate MeOSuc-Ala-Ala-Pro-Val-AMC, pH 7.5; read-out: IC50
assay endpoint: IC50 (nM)
State just the number; it will be interpreted in nM.

Solved cases (8 shown):
CCS(=O)(=O)c1cc(C#N)ccc1[C@@H]1NC(=O)N(c2cccc(C(F)(F)F)c2)C2=C1C(=O)CCC2 (single isomer, unassigned) [Example 54B]; 1870
CCS(=O)(=O)c1cc(C#N)ccc1[C@H]1NC(=O)N(c2cccc(C(F)(F)F)c2)C2=C1C(=O)CCC2 (single isomer, unassigned) [Example 54A]; 3.2
COC(=O)CN1C(=O)N(c2cccc(C(F)(F)F)c2)C2=C(C(=O)CCC2)[C@H]1c1ccc(C#N)cc1 [Example 31A]; 7.6
N#Cc1ccc([C@@H]2NC(=O)N(c3cccc(C(F)(F)F)c3)C3=C2C(=O)CCC3)cc1; 6560
CN1C(=O)N(c2cccc(C(F)(F)F)c2)C2=C(C(=O)CCC2)[C@@H]1c1ccc(C#N)cc1 [Example 20B]; 1340
CS(=O)(=O)c1cc(C#N)ccc1C1NC(=O)N(c2cccc(C(F)(F)F)c2)C2=C1C(=O)CCC2 (racemic); 8.5
CNC(=O)N1C(=O)N(c2cccc(C(F)(F)F)c2)C2=C(C(=O)CCC2)[C@@H]1c1ccc(C#N)cc1S(C)(=O)=O [Example 47B]; 94
CN(CCO)C(=O)CN1C(=O)N(c2cccc(C(F)(F)F)c2)C2=C(C(=O)CCC2)C1c1ccc(C#N)cc1S(C)(=O)=O (stereo not shown); 1.3

Query: Requested read-out IC50, target or system Human neutrophil elastase (Homo sapiens (Human), UniProt P08246), entry N#Cc1ccc(C2C3=C(CCCC3=O)N(c3cccc(C(F)(F)F)c3)C(=O)N2CC(=O)N2CCN3CCCC3C2)cc1 (stereo not shown)
Response: 5

Query: Notebook entry, Human neutrophil elastase (Homo sapiens (Human), UniProt P08246) assay: IC50 of N#Cc1ccc(C2NC(=O)N(c3cccc(C(F)(F)F)c3)C3=C2C(=O)CCC3)cc1 (racemic) = ?
Response: 28.5

Query: Hi! What's the reported IC50 for N#Cc1ccc(C2C3=C(CCCC3=O)N(c3cccc(C(F)(F)F)c3)C(=O)N2CC(=O)NCCN2CCNC2=O)cc1 (stereo not shown) on Human neutrophil elastase (Homo sapiens (Human), UniProt P08246)?
Response: 8.2

---

assay: Assay for Determination of Drug Transport Across Human CACO-2 Cells; assay type: in vitro ADME; settings: human; Caco-2, basal-to-apical, pH 7.2, 37° C.; read-out: PEBA
Overview of reported Papp B→A at 10 nM across a group of compounds:
Please give a number only; it is taken to be in ×10⁻⁶ cm/s.

CCS(=O)(=O)c1cc(C#N)ccc1[C@H]1NC(=O)N(c2cccc(C(F)(F)F)c2)C2=C1C(=O)CCC2 (single isomer, unassigned) [Example 54A]; 61.7

Query: What value of Papp B→A at 10 nM has been recorded for this entry: CN1C(=O)N(c2cccc(C(F)(F)F)c2)C2=C(C(=O)CCC2)[C@H]1c1ccc(C#N)cc1S(C)(=O)=O
Response: 98

Query: Reported Papp B→A at 10 nM for CS(=O)(=O)c1cc(C#N)ccc1[C@H]1NC(=O)N(c2cccc(C(F)(F)F)c2)C2=C1C(=O)CCC2 (single isomer, unassigned) [Example 18A] : what is it?
Response: 88.2

Query: Find the recorded Papp B→A at 10 nM belonging to CN1C(=O)N(c2ccnc(C(F)(F)F)c2)C2=C(C(=O)CCC2)C1c1ccc(C#N)cc1S(C)(=O)=O (stereo not shown) and report it.
Response: 75.7

Query: Fill blank: measured Papp B→A at 10 nM of the compound CNC(=O)N1C(=O)N(c2cccc(C(F)(F)F)c2)C2=C(C(=O)CCC2)[C@H]1c1ccc(C#N)cc1S(C)(=O)=O (single isomer, unassigned) [Example 47A] is ____.
Response: 53.5

Query: GET /values?readout=Papp B→A at 10 nM&item= CC(C)(O)CNC(=O)N1C(=O)N(c2cccc(C(F)(F)F)c2)C2=C(C(=O)CCC2)C1c1ccc(C#N)cc1 (stereo not shown)
Response: 96.1

Query: Name the recorded Papp B→A at 10 nM for CS(=O)(=O)c1cc(C#N)ccc1[C@H]1NC(=O)N(c2cccc(C(F)F)c2)C2=C1C(=O)CCC2 (single isomer, unassigned) [Example 19A] .
Response: 76.7
